B1: TPR t1 (parent)
chain: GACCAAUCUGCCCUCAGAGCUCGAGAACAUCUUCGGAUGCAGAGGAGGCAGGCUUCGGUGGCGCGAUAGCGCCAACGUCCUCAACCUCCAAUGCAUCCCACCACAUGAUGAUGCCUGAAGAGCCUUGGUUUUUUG

Variants of: B1
Assay: polymerase ribozyme fitness, log enrichment relative to wild type (log ratio); higher = more active; in vitro selection for triplet polymerase activity
Rule: T for polymerase ribozyme fitness (log ratio) not less than -2, F for anything less.

[
  {
    "mutation-id": "G93U A95U C97G G120U C124U",
    "class-label": "F"
  },
  {
    "mutation-id": "G17A C53A C104U U133A",
    "class-label": "F"
  }
]

Incoming: Item C20A C49U C72U U78C with polymerase ribozyme fitness (log ratio) of -2 or above?
Outgoing: F

Incoming: Is reported polymerase ribozyme fitness (log ratio) greater than or equal to -2 here: C15U C28G G39U C124A U129G
Outgoing: F

Incoming: Could you tell me if the measured polymerase ribozyme fitness (log ratio) of C8A U38G A43C G61C C123A reaches -2 or more?
Outgoing: F

Incoming: Say whether A26G A29G G39U shows polymerase ribozyme fitness (log ratio) of -2 or more.
Outgoing: F

Incoming: In plain terms: is recorded polymerase ribozyme fitness (log ratio) at least -2 for U9A A26G C101G C104A G122A ?
Outgoing: F

Incoming: Say whether G93A G110A U112A shows polymerase ribozyme fitness (log ratio) of -2 or more.
Outgoing: F

Incoming: # check: polymerase ribozyme fitness (log ratio) of G44A C49U C76G C88G is greater than or equal to -2
Outgoing: F

Incoming: Is polymerase ribozyme fitness (log ratio) for U59C G71A G127C U132C at or above -2?
Outgoing: F

Incoming: Determine whether this variant has polymerase ribozyme fitness (log ratio) no lower than -2: A5C G47A A66G
Outgoing: F

Incoming: Textbook exercise: given the entry U67C G69A U81C C104A G110C U112C , state whether its polymerase ribozyme fitness (log ratio) is greater than or equal to -2.
Outgoing: F

Incoming: Entry U7G C124A : is its polymerase ribozyme fitness (log ratio) no less than -2?
Outgoing: T

Incoming: State whether the measured polymerase ribozyme fitness (log ratio) reaches -2, counting equality as reaching it, for C49U A66G C73A C101A G128A
Outgoing: F

Incoming: # bool: polymerase ribozyme fitness (log ratio) of C34A U78C >= -2
Outgoing: F

Incoming: # check: polymerase ribozyme fitness (log ratio) of A18C G60A U78G G110C U131A is greater than or equal to -2
Outgoing: F

Incoming: Is polymerase ribozyme fitness (log ratio) for A16C C49G C101A at or above -2?
Outgoing: F

Incoming: Hi team, for A26C C97U , is the recorded polymerase ribozyme fitness (log ratio) at or above -2?
Outgoing: F

Incoming: Check if polymerase ribozyme fitness (log ratio) >= -2 (inclusive). Item: U78G U116A
Outgoing: F

Incoming: API: above_or_equal(metric=polymerase ribozyme fitness (log ratio), cutoff=-2) for item A2U G61A G127C
Outgoing: T

Incoming: # bool: polymerase ribozyme fitness (log ratio) of U7A C53U C70U >= -2
Outgoing: T
